Examples of molecules with documented inhibition at 1 µM follow.
Biological target: MAGL (Mus musculus (Mouse), UniProt O35678)
Sequence (O35678 whole entry): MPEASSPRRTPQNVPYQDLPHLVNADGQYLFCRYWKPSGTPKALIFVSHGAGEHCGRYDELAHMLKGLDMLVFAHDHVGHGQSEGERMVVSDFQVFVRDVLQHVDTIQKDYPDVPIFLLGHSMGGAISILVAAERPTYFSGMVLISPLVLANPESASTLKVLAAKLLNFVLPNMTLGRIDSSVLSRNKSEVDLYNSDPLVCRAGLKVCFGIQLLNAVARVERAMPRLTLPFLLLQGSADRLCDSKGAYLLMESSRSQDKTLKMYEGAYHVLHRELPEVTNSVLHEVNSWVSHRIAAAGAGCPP
Assay: In vitro competitive activity-based protein profiling, MAGL (mouse)
Assay type: biochemical
Details: 1 μM, read-out: MAGL % inh. 1 μM (mouse)

>>> df
                                   molecule   measured
0  CC(=O)N(C)c1cnn(C(=O)N2CC3CN(Cc4ccc(N5CCCC5)cc4C(F)(F)F)CC3C2)c1 (centres unmarked) [Example 93]      ≥ 75%
1  CC(=O)N(C)c1cnn(C(=O)N2CC3CN(Cc4ccc(CN5CCOCC5)cc4)CC3C2)c1 (centres unmarked) [Example 225]   0 to 25%
2  CC(=O)N(C)c1cnn(C(=O)N2C[C@H]3C[C@@H](N(C)Cc4cc(N5CCCC5)ccc4C(F)(F)F)C[C@H]3C2)c1 [Example 167]      ≥ 75%
3  CC(=O)N(C)c1cnn(C(=O)N2CC3CN(Cc4cc(C(F)(F)F)cc(C(F)(F)F)c4)CC3C2)c1 (centres unmarked) [Example 116]      ≥ 75%
4  CC(=O)N(C)c1cnn(C(=O)N2CCC3(CC2)CN(Cc2cccc(Cl)c2)C3)c1 [Example 34]      ≥ 75%
5  CC(=O)N(C)c1cnn(C(=O)N2CCC3(CCN(Cc4cc(Cl)ccc4Cl)C3)C2)c1 (racemic) [Example 175]      ≥ 75%
6  CC(=O)N(C)c1cnn(C(=O)N2CC3CN(Cc4ccc(OC5CCN(C6CC6)CC5)cc4C(F)(F)F)CC3C2)c1 (centres unmarked) [Example 271]      ≥ 75%
7  CC(=O)N(C)c1cnn(C(=O)N2CCC3(CCN(Cc4cc(C(F)(F)F)ccc4Cl)C3)C2)c1 (centres unmarked) [Example 71]      ≥ 75%
8  CC(=O)N(C)c1cnn(C(=O)N2CC3CN(Cc4cccc(OCc5ccc(Cl)cc5)c4)CC3C2)c1 (centres unmarked) [Example 249]      ≥ 75%
9  CS(=O)(=O)Nc1cnn(C(=O)N2CCN(Cc3cc(Cl)ccc3C(F)(F)F)CC2)c1 [Example 293]  50 to 75%

// query // fetch MAGL (Mus musculus (Mouse), UniProt O35678) inhibition at 1 µM for CC(=O)N(C)c1cnn(C(=O)N2C[C@H]3C[C@H](N(Cc4ccc(Cl)cc4)C(C)=O)C[C@H]3C2)c1 [Example 174]
// result ≥ 75%

// query // fetch MAGL (Mus musculus (Mouse), UniProt O35678) inhibition at 1 µM for CC(=O)N(C)c1cnn(C(=O)N2C[C@H]3C[C@H](N(C)Cc4cc(N5CCCC5)ccc4C(F)(F)F)C[C@H]3C2)c1 [Example 142]
// result ≥ 75%

// query // fetch MAGL (Mus musculus (Mouse), UniProt O35678) inhibition at 1 µM for CC(=O)N(C)c1cnn(C(=O)N2CC3CN(Cc4ccc(Oc5ccnnc5)cc4Cl)CC3C2)c1 (centres unmarked) [Example 257]
// result 50 to 75%

====

Molecular target: MAGL (Mus musculus (Mouse))
Test: In vitro competitive activity-based protein profiling, MAGL (mouse)
Assay type: biochemical
Details: 1 μM, read-out: MAGL % inh. 1 μM (mouse)
Examples of compounds with documented inhibition at 1 µM follow.

Would you please look over these solved cases?
>>> df
                                   compound  measured
0  CC(=O)N(C)c1cnn(C(=O)N2CCN(Cc3ccccc3N3CCOCC3)CC2)c1     ≥ 75%
1  CC(=O)N(C)c1cnn(C(=O)N2CCC3(CCN(Cc4ccc(-c5cnccn5)cc4Cl)C3)C2)c1 (stereo not shown)     ≥ 75%
2  CC(=O)N(C)c1cnn(C(=O)N2C[C@H]3C[C@H](N(C)Cc4ccc(N5C6CCC5COC6)c(C(F)(F)F)c4)C[C@H]3C2)c1     ≥ 75%

// query Which inhibition at 1 µM is listed for CC(=O)N(C)c1cnn(C(=O)N2CCC3(CCN(Cc4cc(C(F)(F)F)ccc4C(F)(F)F)C3)C2)c1 (stereo not shown) ?
// result ≥ 75%
